Tested on: MS2 coat protein
Experiment: apparent KD of MS2 coat protein; designed switch direction (-1 OFF switch, 1 ON switch): -1; higher = weaker reporter binding
Conditions: input ligand: FMN 200 uM
Lab note: anything with apparent KD of MS2 coat protein at or over 0.09 µM counts as YES; the rest go in NO.

# bool: apparent KD of MS2 coat protein of AGAGUGCUGCGAGGAUAUACAUGAGGAUCACCCAUGUUUUCGUGUGAGGCUUUGCCUCACACGAAGUAGAAGGCGCAGUACUCA [Mat - Exclusion NG 2 - Mod of JL - D32] (Eterna round: R96, puzzle: Exclusion NG 2) >= 0.09 µM
NO

# bool: apparent KD of MS2 coat protein of CGGCAACAUGAGGAUCACCCAUGUUAGGAUAUCGGUGGCUGACACGAAACAGGACCGGUGAGAAGGAGUAUGGU [Eternabot (L1) Solution 2] (Eterna round: R97, puzzle: Exclusion 1) >= 0.09 µM
NO

# bool: apparent KD of MS2 coat protein of CAGUACUGAGGAUAUACAUGAGGAUCACCCAUGUGAGAGAUACUAGUGAGGUCGAUUAGUAGAAGGCAGUACUG [Mat X3R4 m3] (Eterna round: R97, puzzle: Exclusion 3) >= 0.09 µM
YES

# bool: apparent KD of MS2 coat protein of UGAUCACAUGAGGAUCACCCAUGUCAGGAUAUCUACAUUGAAGCUUCGGCUUCAAUGUAGAGAAGGGACAUAAU [E1/3-B1] (Eterna round: R97, puzzle: Exclusion 1) >= 0.09 µM
YES

# bool: apparent KD of MS2 coat protein of CAGUACAGAGGAUAUACAUGAGGAUCACCCAUGUGUUUCAGGUACGAGAGUACCGAGUGUAGAAGGCUGUACUG [jl-ex3-4.28 salish99 mod] (Eterna round: R97, puzzle: Exclusion 3) >= 0.09 µM
YES

# bool: apparent KD of MS2 coat protein of CCCGUCGAUGUAGGAUAUGCCCGGGUCUCCCGGGCAGAAGGACAUGAGGAUCACCCAUGUUCAUGAGGAUCACCCGUGAAUGGG [Double but mutated MS2] (Eterna round: R96, puzzle: Exclusion NG 1) >= 0.09 µM
NO

# bool: apparent KD of MS2 coat protein of ACCCUGUGAGGAUAUUGUGAGCAGACACUUGAGUGCAAUCAUAAGAAGGUACAUGAGGAUCACCCAUGUGAAAC [Eternabot (L1) Solution 90] (Eterna round: R97, puzzle: Exclusion 4) >= 0.09 µM
NO

# bool: apparent KD of MS2 coat protein of UUAAUUUAAGGGAUAGAUCAUUACAUGAGGAUCACCCAUGUUGAGGAUAUCAGCUCGAUUAGAGCUGAGAAGGCAACAAUAGGG [ExNG3/14-A1] (Eterna round: R96, puzzle: Exclusion NG 3) >= 0.09 µM
NO

# bool: apparent KD of MS2 coat protein of UAAAGUAUAUAGGAUAUCUAGCUGGAAACAGCUAGAGAAGGAUGUACAUGAGGAUCACCCAUGUAAAACCUCAA [Ex6/17-A1] (Eterna round: R97, puzzle: Exclusion 6) >= 0.09 µM
NO

# bool: apparent KD of MS2 coat protein of UUUAGUUCAGGAUAUGUAGAUUUAAACAUGAGGAUCACCCAUGUAAAUCCUGAUCCUGCUACAGAAGGGAACAUUU [Mat - Exclusion 5 - Eli Mod - D11] (Eterna round: R97, puzzle: Exclusion 5) >= 0.09 µM
NO

# bool: apparent KD of MS2 coat protein of CAUGUGUUAGGAUAUGCACAGAUCUCCUAAUGGAGAUCUGUGCAGAAGGAACAUGAGGAUCACCCAUGUUGAUG [Mod of Brourd 13 - Jieux - Exclusion 4] (Eterna round: R97, puzzle: Exclusion 4) >= 0.09 µM
YES

# bool: apparent KD of MS2 coat protein of AUUUAUAAUGUAGGAUAUGGAUUCGAAACGUAUCCAGAAGGACAUGAGGAUCACCCAUGUACAUGAGGAUCACCCAAUUUAUUA [Fiskers ExNg1 - 10] (Eterna round: R96, puzzle: Exclusion NG 1) >= 0.09 µM
YES

# bool: apparent KD of MS2 coat protein of CGGGCGUGAGGAUAUCCAUCUGGAUCAGACUAGAUCCUGAUGGAGAAGGCACAUGAGGAUCACCCAUGUACCCG [Eli 4x 4.50] (Eterna round: R97, puzzle: Exclusion 4) >= 0.09 µM
NO

# bool: apparent KD of MS2 coat protein of GAAAACGAAGAGGAUAUAUGAUAUCAAAGCUUCAUAGAAGGCUUCACAUGAGGAUCACCCAUGUGAUCUUCAAU [Mat - Exclusion 6 - JL Mod - D23] (Eterna round: R97, puzzle: Exclusion 6) >= 0.09 µM
YES

# bool: apparent KD of MS2 coat protein of CUCCGGCGUGUAGGAUAUGGAUCCGAUUAGGAUCCAGAAGGACAUGAGGAUCACCCAUGUACAUGUAAACAGUCAUCACCGGAC [salish99_ExNG1_r04_204] (Eterna round: R96, puzzle: Exclusion NG 1) >= 0.09 µM
YES

# bool: apparent KD of MS2 coat protein of UGAGCUUGAGGAUAUACAAGGCGACCGUGAGGUCGAGGUUUACAUGAGGAUCACCCAUGUAGAAGGCAAGUUCU [Mat - Exclusion 2 - JL Mod - D8] (Eterna round: R97, puzzle: Exclusion 2) >= 0.09 µM
NO

# bool: apparent KD of MS2 coat protein of ACAUGAGGAUCACCCAUGUCCGUCUGGUCUGUCUCGGCUGUCGAGGAUAUAGCUCGGUAUCCGCGCUAGAAGGCGGGAGUCGGC [Aenatbe mod 96] (Eterna round: R96, puzzle: Exclusion NG 3) >= 0.09 µM
NO
